Kindly supply the reported Ki values for the records listed here.
# MEASURED_TARGET: PKC theta kinase (Homo sapiens, UniProt Q04759)
# Sequence (Q04759 whole entry): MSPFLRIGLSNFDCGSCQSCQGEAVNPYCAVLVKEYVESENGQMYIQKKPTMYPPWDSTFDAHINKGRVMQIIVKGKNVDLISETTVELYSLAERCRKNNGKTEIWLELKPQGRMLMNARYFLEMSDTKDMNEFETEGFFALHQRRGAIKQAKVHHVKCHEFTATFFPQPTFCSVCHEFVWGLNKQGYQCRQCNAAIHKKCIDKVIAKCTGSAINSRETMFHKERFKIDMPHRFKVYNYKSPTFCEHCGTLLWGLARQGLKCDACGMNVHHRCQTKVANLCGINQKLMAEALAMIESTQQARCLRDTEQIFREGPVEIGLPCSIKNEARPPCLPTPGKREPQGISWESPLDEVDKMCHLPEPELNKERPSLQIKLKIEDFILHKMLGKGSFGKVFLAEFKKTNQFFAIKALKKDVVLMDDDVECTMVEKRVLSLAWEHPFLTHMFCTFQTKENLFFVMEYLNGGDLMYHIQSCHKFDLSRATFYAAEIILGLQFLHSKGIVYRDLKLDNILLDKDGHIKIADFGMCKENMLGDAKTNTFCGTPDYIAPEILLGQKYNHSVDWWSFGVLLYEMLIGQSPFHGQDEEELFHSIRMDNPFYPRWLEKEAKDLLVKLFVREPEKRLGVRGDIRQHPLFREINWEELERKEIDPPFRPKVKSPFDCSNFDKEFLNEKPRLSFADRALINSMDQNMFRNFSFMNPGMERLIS
# METHOD_SUMMARY: PKC theta kinase inhibition, coupled-enzyme NADH absorbance assay (Ki)
# Type: biochemical
# PROTOCOL_CONDITIONS: 240 μM ATP, 18 nM PKC theta, 30° C.; read-out: Ki PKC theta

Tell me measured Ki for CCC1(c2cccc(-c3ccnc4[nH]ncc34)c2)CCNC1 (centres unmarked) [Compound 194] please.
< 50 nM

Give me measured Ki, please, for this compound: CCc1n[nH]c2nccc(-c3cc(C)cc(C4(CN)CC4)c3)c12 [Compound 265]
< 50 nM

Hello, please tell me recorded Ki for this one: CC(C#N)(CC1CC1)c1cccc(-c2ccnc3[nH]ncc23)c1 (centres unmarked) [Compound 80]
< 500 nM

Input C/C=C/c1cc(CNC)cc(-c2ccnc3[nH]ncc23)c1 [Compound 60] , output reported Ki.
< 2800 nM

Determine its reported Ki: COC(CN)c1cc(C)cc(-c2ccnc3[nH]ncc23)c1 (centres unmarked) [Compound 248]
< 500 nM

Recall and state the measured Ki for NCC1(c2cccc(-c3ccnc4[nH]nc(C(F)(F)F)c34)c2)COC1 [Compound 305] .
< 50 nM

Hello, please tell me recorded Ki for this one: CCc1cc(-c2ccnc3[nH]nc(C(F)(F)F)c23)cc(C2(CN)CCC2)c1 [Compound 272]
< 50 nM

Provide only the value of recorded Ki for N#CCCc1cc(-c2ccnc3[nH]ncc23)cc(C2(C#N)CC2)c1 [Compound 240]
< 500 nM

Identify the reported Ki for the following entry. FC(F)CC1(c2cccc(-c3ccnc4[nH]ncc34)c2)CNC1 [Compound 191]
< 50 nM

For CCSc1cc(-c2ccnc3[nH]ncc23)cc(C(C)(CC)CN)c1 (centres unmarked) [Compound 166] , write its Ki.
< 50 nM

Please indicate Ki recorded for CC(C)(C#N)c1cccc(-c2ccnc3[nH]ncc23)n1 [Compound 1]
< 50 nM

Query Ki for C=CCc1cc(CNC)cc(-c2ccnc3[nH]ncc23)c1 [Compound 63]
< 500 nM

Please list Ki recorded for the compound OCc1cccc(-c2ccnc3[nH]ncc23)c1 [Compound 322]
> 700 nM

Indicate the recorded Ki value for this compound: COc1cccc(CC(C)(CN)c2cccc(-c3ccnc4[nH]ncc34)c2)c1 (centres unmarked) [Compound 173]
< 50 nM

Let me know recorded Ki for NCC1(c2cccc(-c3ccnc4[nH]ncc34)c2)CCC(F)(F)CC1 [Compound 181] , thanks.
< 500 nM

Report Ki, nothing else, for this compound: CC(C)(C#N)c1cc(C(=O)c2ccccc2)cc(-c2ccnc3[nH]ncc23)c1 [Compound 16]
< 2800 nM

Recall and state the measured Ki for CC#CCC(C)(CN)c1cccc(-c2ccnc3[nH]ncc23)c1 (centres unmarked) [Compound 155] .
< 50 nM

Query Ki for N#CC1(c2cc(CCCN)cc(-c3ccnc4[nH]nc(C(F)(F)F)c34)c2)CC1 [Compound 283]
< 50 nM

Input CC(CN)(CC(F)F)c1cccc(-c2ccnc3[nH]ncc23)c1 (centres unmarked) [Compound 148] , output reported Ki.
< 50 nM

Look up and report measured Ki for this entry: N#CC1(c2cccc(-c3ccnc4[nH]ncc34)n2)CCNC1 (centres unmarked) [Compound 3]
< 50 nM

In one line, give reported Ki of the entry C#CCC(C)(CN)c1cccc(-c2ccnc3[nH]ncc23)c1 (centres unmarked) [Compound 135] .
< 50 nM

Using the record for CC(O)c1cc(-c2ccnc3[nH]ncc23)cc(C(C)(C)CN)c1 (centres unmarked) [Compound 39] , state its measured Ki.
< 500 nM

State its Ki for this compound: COCCC(CN)c1cccc(-c2ccnc3[nH]nc(C(F)(F)F)c23)c1 (centres unmarked) [Compound 284]
< 50 nM

Find the measured Ki of NCC1(c2cccc(-c3ccnc4[nH]nc(C(F)(F)F)c34)c2)CCC1 [Compound 280] and report it.
< 50 nM

Given N#CC1(c2cc(-c3ccnc4[nH]ncc34)cc(C(F)(F)F)c2)CCC1 [Compound 92] , respond with its Ki.
< 500 nM

Provide only the value of recorded Ki for CC#CC[C@](C)(CN)c1cccc(-c2ccnc3[nH]ncc23)c1 [Compound 185]
< 50 nM

Where these numbers come from: patent US8173635B2
